Quick reference: Dmax of the listed items.
- Target of assay: AR in LNCaP cells (Homo sapiens, UniProt P10275, T878A)
- Construct: Assay on Degradation Activity for AR in LNCaP Cells; endogenous in cells; host or cells: LNCaP cells
- Sequence (P10275 whole entry T878A): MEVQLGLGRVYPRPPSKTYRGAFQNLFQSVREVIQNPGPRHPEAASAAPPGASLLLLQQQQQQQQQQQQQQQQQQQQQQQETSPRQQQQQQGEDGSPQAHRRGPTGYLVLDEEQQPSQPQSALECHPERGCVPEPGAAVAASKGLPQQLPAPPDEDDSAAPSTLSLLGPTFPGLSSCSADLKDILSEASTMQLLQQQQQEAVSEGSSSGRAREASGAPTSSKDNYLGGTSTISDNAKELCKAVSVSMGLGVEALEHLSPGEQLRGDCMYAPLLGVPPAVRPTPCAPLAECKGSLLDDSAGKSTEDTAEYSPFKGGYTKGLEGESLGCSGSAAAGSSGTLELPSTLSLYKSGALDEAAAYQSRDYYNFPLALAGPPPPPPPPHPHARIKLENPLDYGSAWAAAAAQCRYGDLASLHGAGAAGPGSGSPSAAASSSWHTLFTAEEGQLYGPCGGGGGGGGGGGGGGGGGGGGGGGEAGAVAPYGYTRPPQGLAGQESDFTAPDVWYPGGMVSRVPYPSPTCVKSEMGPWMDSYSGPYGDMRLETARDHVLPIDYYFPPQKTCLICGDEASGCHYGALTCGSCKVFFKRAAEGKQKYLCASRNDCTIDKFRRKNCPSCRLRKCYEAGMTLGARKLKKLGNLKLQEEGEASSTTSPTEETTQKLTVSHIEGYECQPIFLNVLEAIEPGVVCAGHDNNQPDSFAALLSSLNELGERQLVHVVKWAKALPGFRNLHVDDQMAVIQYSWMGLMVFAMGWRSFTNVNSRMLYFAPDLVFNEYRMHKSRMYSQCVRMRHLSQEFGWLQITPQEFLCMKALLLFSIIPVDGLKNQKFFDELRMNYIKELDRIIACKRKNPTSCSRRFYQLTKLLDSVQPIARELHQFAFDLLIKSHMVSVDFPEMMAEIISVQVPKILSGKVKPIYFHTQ
- Assay comment: Assay on degradation activity for AR in LNCaP cells (HTRF human androgen receptor detection kit)
- Format: cell-based
- Assay context: 24 h incubation, maximum degradation rate

Compound	Target of assay	Dmax
N#Cc1ccc(O[C@H]2CC[C@H](NC(=O)c3ccc(N4CCC5(CC4)CC(CN4CCc6c(ccc7c(C8CCC(=O)NC8=O)noc67)C4)C5)nn3)CC2)cc1Cl (stereo partly drawn)	AR in LNCaP cells (Homo sapiens, UniProt P10275, T878A)	> 80%
N#Cc1ccc(O[C@H]2CC[C@H](NC(=O)c3ccc(N4CCC(CN5CCc6ccc7c(C8CCC(=O)NC8=O)noc7c6C5)CC4)nn3)CC2)cc1Cl (stereo partly drawn)	AR in LNCaP cells (Homo sapiens, UniProt P10275, T878A)	> 80%

Field: next compound
Inquiry: May I ask what Dmax has been recorded for N#Cc1ccc(O[C@H]2CC[C@H](NC(=O)c3ccc(N4CCN(C5CN(CC6Cc7ccc8c(C9CCC(=O)NC9=O)coc8c7C6)C5)CC4)nn3)CC2)cc1Cl (stereo partly drawn) ?
Reply text: > 80%

Reference source: patent US20260035384A1
